Assay procedure: Acute toxicity, intraperitoneal
Setup conditions: mouse, in vivo, ip, male Swiss mice, intraperitoneal, 7 days observation; preliminary, by graphic interpolation; read-out: acute toxicity (LD50 / DL50)
Measured endpoint: LD50 at 168 h (mg/kg)
Give bare numbers, in mg/kg.

{"Molecule": "O=C(NCc1ccncc1)c1ccc(O)c(C(=O)NCc2ccncc2)c1 [Example 57]", "LD50 at 168 h / mg/kg": 661}
{"Molecule": "CC(C)=COc1ccc(C(=O)NCc2ccncc2)cc1C(=O)NCc1ccncc1 [Example 65]", "LD50 at 168 h / mg/kg": 240}
{"Molecule": "CC=COc1c(Cl)cc(C(=O)N(CCCCC)Cc2cccnc2)cc1C(=O)N(CCCCC)Cc1cccnc1 [Example 51]", "LD50 at 168 h / mg/kg": 205}
{"Molecule": "CC(C)CCOc1ccc(C(=O)NCc2cccnc2)cc1C(=O)NCc1cccnc1 [Example 13]", "LD50 at 168 h / mg/kg": 173}

Go through the list and state LD50 at 168 h for each entry.
1. COc1ccc(C(=O)N(Cc2cccnc2)C(C)C)cc1C(=O)N(Cc1cccnc1)C(C)C [Example 43]
2. C=CC(C)Oc1ccc(C(=O)NCc2ccncc2)cc1C(=O)NCc1ccncc1 (stereo not shown) [Example 64]
3. CCCCCCOc1ccc(C(=O)NCc2ccncc2)cc1C(=O)NCc1ccncc1 [Example 60]

## Result
478
360
206

====

Tested on: thrombin-induced coagulation of platelet rich plasma
Assay procedure: Antithrombin activity on PRP, Hartert's thromboelastograph
Type: in vivo, New Zealand rabbits
Setup conditions: Oryctolagus cuniculus, Platelet, ip, percent decrease of index ma/[r+k] vs before treatment; 20 mg/kg intraperitoneal, rabbits
Assign classes using reported inhibition in vivo at 20 mg/kg values and the ranges Low (below 30%), Medium (30% to below 40%), High (40% or more), please.

{"Given smiles": "C=CCCOc1ccc(C(=O)NCc2cccnc2)cc1C(=O)NCc1cccnc1", "Experimental system": "thrombin-induced coagulation of platelet rich plasma", "Classification": "High"}

## Task Which category does the recorded inhibition in vivo at 20 mg/kg put CC=CCOc1ccc(C(=O)N(C)Cc2ccncc2)cc1C(=O)N(C)Cc1ccncc1 in?
## Result High

====

Assay procedure: Acute toxicity, intraperitoneal
Setup conditions: mouse, in vivo, ip, male Swiss mice, intraperitoneal, 7 days observation; preliminary, by graphic interpolation; read-out: acute toxicity (LD50 / DL50)
Consider the following compounds; for each one, report its LD50 at 168 h.
Give bare numbers, in mg/kg.

{"Given smiles": "CCCCOc1c(Cl)cc(C(=O)NCc2cccnc2)cc1C(=O)NCc1cccnc1", "LD50 at 168 h / mg/kg": 205}

Go through the list and state LD50 at 168 h for each entry.
1. CC(C)=COc1ccc(C(=O)NCc2cccnc2)cc1C(=O)NCc1cccnc1
2. CCCCOc1ccc(C(=O)NCc2cccnc2)cc1C(=O)NCc1cccnc1
3. C=CCOc1c(Cl)cc(C(=O)NCc2ccncc2)cc1C(=O)NCc1ccncc1
4. CCN(Cc1cccnc1)C(=O)c1ccc(OC)c(C(=O)N(CC)Cc2cccnc2)c1
5. C=CCOc1c(C(=O)NCc2cccnc2)cc(C(=O)NCc2cccnc2)cc1[N+](=O)[O-]
6. COc1c(Cl)cc(C(=O)NCc2ccncc2)cc1C(=O)NCc1ccncc1

## Result
[338, 573, 187, 605, 267, 437]

====

Consider the following compounds; for each one, report its change in vivo at 25 mg/kg.
Tested on: CaCl2-induced plasma coagulation
Assay procedure: Anticoagulant activity on PRP, Hartert's thromboelastograph
Assay type: in vivo, New Zealand rabbits
Setup conditions: Oryctolagus cuniculus, ip, percent increase of total time for coagulum formation (r+k) vs before treatment; 25 mg/kg intraperitoneal, rabbits; read-out: anticoagulant activity (AC)
One number for each entry, in %.

Example cases with answers are listed next.
{"Compound": "CC(C)CCOc1c(Cl)cc(C(=O)NCc2cccnc2)cc1C(=O)NCc1cccnc1 [Example 27]", "Measured endpoint": "change in vivo at 25 mg/kg", "Value reported": 23.8}
{"Compound": "C=CCCCCOc1ccc(C(=O)NCc2cccnc2)cc1C(=O)NCc1cccnc1 [Example 10]", "Measured endpoint": "change in vivo at 25 mg/kg", "Value reported": 12.6}

Here is another compound to look at.
According to the records, this compound CC=CCOc1ccc(C(=O)N(C)Cc2cccnc2)cc1C(=O)N(C)Cc1cccnc1 [Example 53] displays change in vivo at 25 mg/kg of 15.1

====

Test system: thrombin-induced coagulation of platelet rich plasma
Assay procedure: Antithrombin activity on PRP, Hartert's thromboelastograph
Assay type: in vivo, New Zealand rabbits
Setup conditions: Oryctolagus cuniculus, Platelet, ip, percent decrease of index ma/[r+k] vs before treatment; 20 mg/kg intraperitoneal, rabbits
Procedure: Determination of the antithrombin activity The antithrombin activity on the PRP (platelet rich plasma) obtained following the above described method was assessed by Hartert's thromboelastograph (Hellige model). The coagulation was induced by adding to 0.25 ml of plasma 0.06 ml of a thrombin solution (Roche Topostasin® per os) at 60 units*, pH 7.4**. […]
Assign classes using reported inhibition in vivo at 20 mg/kg values and the ranges b0 = under 30%, b1 = from 30% up to 40%, b2 = 40% and over, please.

A selection of reference data follows.
{"Compound": "CC=COc1c(Cl)cc(C(=O)N(CCCCC)Cc2cccnc2)cc1C(=O)N(CCCCC)Cc1cccnc1 [Example 51]", "Classification": "b0"}
{"Compound": "CC(C)COc1ccc(C(=O)NCc2cccnc2)cc1C(=O)NCc1cccnc1 [Example 15]", "Classification": "b0"}
{"Compound": "CCCN(Cc1cccnc1)C(=O)c1ccc(OC)c(C(=O)N(CCC)Cc2cccnc2)c1 [Example 41]", "Classification": "b0"}
{"Compound": "CCCCCCOc1ccc(C(=O)NCc2cccnc2)cc1C(=O)NCc1cccnc1 [Example 4]", "Classification": "b2"}

## Task Which category does the recorded inhibition in vivo at 20 mg/kg put C=CCCCCOc1ccc(C(=O)NCc2cccnc2)cc1C(=O)NCc1cccnc1 [Example 10] in?
## Result b2

## Task Which category does the recorded inhibition in vivo at 20 mg/kg put CCCOc1ccc(C(=O)NCc2cccnc2)cc1C(=O)NCc1cccnc1 [Example 1] in?
## Result b1

====

Assay procedure: Acute toxicity, intraperitoneal
Setup conditions: mouse, in vivo, ip, male Swiss mice, intraperitoneal, 7 days observation; preliminary, by graphic interpolation; read-out: acute toxicity (LD50 / DL50)
Measured endpoint: LD50 at 168 h (mg/kg)
Answers are plain numbers, in mg/kg.

Example cases with answers are listed next.
{"Given smiles": "C=C(C)Oc1c(Cl)cc(C(=O)N(C)Cc2ccncc2)cc1C(=O)N(C)Cc1ccncc1", "Value reported": 255}
{"Given smiles": "CC=COc1c(Cl)cc(C(=O)N(Cc2cccnc2)CC(C)(C)C)cc1C(=O)N(Cc1cccnc1)CC(C)(C)C", "Value reported": 207}

Go through the list and state LD50 at 168 h for each entry.
1. CC(C)CCOc1c(Cl)cc(C(=O)NCc2cccnc2)cc1C(=O)NCc1cccnc1
2. CCCOc1ccc(C(=O)NCc2ccncc2)cc1C(=O)NCc1ccncc1
3. CC=CCOc1ccc(C(=O)N(C)Cc2ccncc2)cc1C(=O)N(C)Cc1ccncc1
4. C=CCOc1c(OC)cc(C(=O)NCc2cccnc2)cc1C(=O)NCc1cccnc1
5. C=C(C)COc1ccc(C(=O)N(Cc2cccnc2)C(C)C)cc1C(=O)N(Cc1cccnc1)C(C)C
6. CC=CCOc1ccc(C(=O)N(C)Cc2cccnc2)cc1C(=O)N(C)Cc1cccnc1

## Result
[195, 623, 210, 298, 352, 215]

Go through the list and state LD50 at 168 h for each entry.
1. CC(C)(C)Oc1ccc(C(=O)NCc2cccnc2)cc1C(=O)NCc1cccnc1
2. CCOc1ccc(C(=O)N(CCC(C)C)Cc2cccnc2)cc1C(=O)N(CCC(C)C)Cc1cccnc1
3. COc1ccc(C(=O)NCc2ccncc2)cc1C(=O)NCc1ccncc1
4. CCCCCCCCOc1ccc(C(=O)NCc2cccnc2)cc1C(=O)NCc1cccnc1
5. C=CCOc1c(Cl)cc(C(=O)NCc2cccnc2)cc1C(=O)NCc1cccnc1
6. CC(C)Oc1ccc(C(=O)NCc2ccncc2)cc1C(=O)NCc1ccncc1

## Result
1. 325
2. 460
3. 704
4. 187
5. 184
6. 618

Go through the list and state LD50 at 168 h for each entry.
1. COc1cc(C(=O)NCc2cccnc2)cc(C(=O)NCc2cccnc2)c1OC1CCCC1
2. O=C(NCc1cccnc1)c1cc(C(=O)NCc2cccnc2)c(O)c([N+](=O)[O-])c1

## Result
1: 375; 2: 345

According to the records, this molecule CC(C)Oc1ccc(C(=O)NCc2cccnc2)cc1C(=O)NCc1cccnc1 displays LD50 at 168 h of 615
